test.protocol: Metabolic stability in mouse liver microsomes assessed as parent compound remaining incubated for 10 mins
Type: ADME, Microsome
condition.set: read-out: Stabilty
endpoint.name: remaining at 10 min (%)

1) C[C@]1(c2ccc(F)cc2)CN(C(=O)C2CCN(C(=O)C(N)=O)CC2)C[C@H]1c1ccc(C(O)(C(F)(F)F)C(F)(F)F)cc1; 87
2) C[C@@]1(c2ccc(F)cc2)CN(C(=O)NCc2ccccc2)C[C@@H]1c1ccc(C(O)(C(F)(F)F)C(F)(F)F)cc1; 17
3) C[C@]1(c2ccc(F)cc2)CN(C(=O)NCc2ccc(C#N)cc2)C[C@H]1c1ccc(C(O)(C(F)(F)F)C(F)(F)F)cc1; 51
4) COc1ccc(CNC(=O)N2C[C@@H](c3ccc(C(O)(C(F)(F)F)C(F)(F)F)cc3)[C@@](C)(c3ccc(F)cc3)C2)cc1; 67
5) CC(=O)N1CCC(C(=O)N2C[C@@H](c3ccc(C(O)(C(F)(F)F)C(F)(F)F)cc3)[C@@](C)(c3ccc(F)cc3)C2)CC1; 81
6) CCS(=O)(=O)c1ccc(CNC(=O)N2C[C@@H](c3ccc(C(O)(C(F)(F)F)C(F)(F)F)cc3)[C@@](C)(c3ccc(F)cc3)C2)cc1; 51
7) CC(=O)N1CCC(C(=O)N2C[C@H](c3ccc(C(O)(C(F)(F)F)C(F)(F)F)cc3)[C@](C)(c3ccccc3)C2)CC1; 79

---

Below: a set of entries, each annotated with reported remaining at 10 min.
test.protocol: Metabolic stability in human liver microsomes assessed as parent compound remaining incubated for 10 mins
Type: ADME, Microsome
condition.set: read-out: Stabilty
endpoint.name: remaining at 10 min (%)

1) C[C@]1(c2ccc(F)cc2)CN(C(=O)NCc2ccc(C#N)cc2)C[C@H]1c1ccc(C(O)(C(F)(F)F)C(F)(F)F)cc1; 76
2) CCS(=O)(=O)c1ccc(CNC(=O)N2C[C@@H](c3ccc(C(O)(C(F)(F)F)C(F)(F)F)cc3)[C@@](C)(c3ccc(F)cc3)C2)cc1; 32
3) C[C@]1(c2ccc(F)cc2)CN(C(=O)C2CCN(S(C)(=O)=O)CC2)C[C@H]1c1ccc(C(O)(C(F)(F)F)C(F)(F)F)cc1; 90
4) C[C@]1(c2ccc(F)cc2)CN(C(=O)NCc2ccccc2)C[C@H]1c1ccc(C(O)(C(F)(F)F)C(F)(F)F)cc1; 73
5) C[C@@]1(c2ccc(F)cc2)CN(C(=O)NCc2ccccc2)C[C@@H]1c1ccc(C(O)(C(F)(F)F)C(F)(F)F)cc1; 58
6) CC(=O)N1CCC(C(=O)N2C[C@H](c3ccc(C(O)(C(F)(F)F)C(F)(F)F)cc3)[C@](C)(c3ccccc3)C2)CC1; 74
7) CC(=O)N1CCC(C(=O)N2C[C@@H](c3ccc(C(O)(C(F)(F)F)C(F)(F)F)cc3)[C@@](C)(c3ccccc3)C2)CC1; 89
8) C[C@]1(c2ccc(F)cc2)CN(C(=O)NCc2ccc3c(c2)OCO3)C[C@H]1c1ccc(C(O)(C(F)(F)F)C(F)(F)F)cc1; 54
9) C[C@]1(c2ccc(F)cc2)CN(C(=O)C2CCN(C(N)=O)CC2)C[C@H]1c1ccc(C(O)(C(F)(F)F)C(F)(F)F)cc1; 97

---

Attribute: remaining at 10 min
test.protocol: Metabolic stability in human liver microsomes assessed as parent compound remaining incubated for 10 mins
Format: ADME, Microsome
condition.set: read-out: Stabilty
endpoint.name: remaining at 10 min (%)

1) CC(=O)N1CCC(C(=O)N2C[C@@H](c3ccc(C(O)(C(F)(F)F)C(F)(F)F)cc3)[C@@](C)(c3ccc(F)cc3)C2)CC1; 86
2) C[C@]1(c2ccc(F)cc2)CN(C(=O)C2CCN(C(=O)CO)CC2)C[C@H]1c1ccc(C(O)(C(F)(F)F)C(F)(F)F)cc1; 86
3) C[C@]1(c2ccc(F)cc2)CN(C(=O)C2CCN(C(=O)C(N)=O)CC2)C[C@H]1c1ccc(C(O)(C(F)(F)F)C(F)(F)F)cc1; 91
4) C[C@]1(c2ccc(F)cc2)CN(C(=O)NCc2ccncc2)C[C@H]1c1ccc(C(O)(C(F)(F)F)C(F)(F)F)cc1; 11
5) C[C@]1(c2ccc(F)cc2)CN(C(=O)C2CCN(C(=O)CC#N)CC2)C[C@H]1c1ccc(C(O)(C(F)(F)F)C(F)(F)F)cc1; 80
6) COCC(=O)N1CCC(C(=O)N2C[C@@H](c3ccc(C(O)(C(F)(F)F)C(F)(F)F)cc3)[C@@](C)(c3ccc(F)cc3)C2)CC1; 54
7) COc1ccc(CNC(=O)N2C[C@@H](c3ccc(C(O)(C(F)(F)F)C(F)(F)F)cc3)[C@@](C)(c3ccc(F)cc3)C2)cc1; 68
